Cited source: patent US4684719A

Please respond with reported response vs control in vivo at 40 mg/kg for every item in the list.
- Test system: Ehrlich carcinoma
- method: Activities against Ehrlich carcinoma (antitumor effect, survival time in mice)
- Format: in vivo, ICR female mice
- experimental.parameters: Mus musculus, ip, 720 h, 40.0 mg/kg, intraperitoneal, once a day for 10 days, average survival time counted 30 days after implantation, read-out: Antitumor effect (T/C %)
One number for each entry, in %.

>  <query.smiles>
CCCCCCCCCCCCCC(=O)O[C@H]1[C@H](O)[C@@H](O)[C@@H](O[C@H]2O[C@H](CO)[C@@H](OC(=O)CCCCCCCCCCCCC)[C@H](O)[C@H]2O)O[C@@H]1CO

>  <value.unit>
%

>  <response vs control in vivo at 40 mg/kg>
203

$$$$
>  <query.smiles>
CCCC(=O)O[C@H]1[C@H](O)[C@@H](O)[C@@H](O[C@H]2O[C@H](CO)[C@@H](OC(=O)CCC)[C@H](O)[C@H]2O)O[C@@H]1CO

>  <value.unit>
%

>  <response vs control in vivo at 40 mg/kg>
114

$$$$
>  <query.smiles>
CCCCCCCCCCCCCCCCCC(=O)O[C@H]1[C@H](O)[C@@H](O)[C@@H](O[C@H]2O[C@H](CO)[C@@H](OC(=O)CCCCCCCCCCCCCCCCC)[C@H](O)[C@H]2O)O[C@@H]1CO

>  <value.unit>
%

>  <response vs control in vivo at 40 mg/kg>
198

$$$$

# input for lookup
Prompt: Lab note: need response vs control in vivo at 40 mg/kg with Ehrlich carcinoma for entry CCCCCCCCCCCC(=O)O[C@H]1[C@H](O)[C@@H](O)[C@@H](O[C@H]2O[C@H](CO)[C@@H](OC(=O)CCCCCCCCCCC)[C@H](O)[C@H]2O)O[C@@H]1CO , please look it up.
Completion: 225

----------
Please respond with reported IC50 for every item in the list.
- Tested on: Leukemia L-5178Y cells
- method: Cell-killing activities (leukemia L-5178Y cells)
- Format: cell-based
- experimental.parameters: Mus musculus, L5178Y; 48 hours, 37° C., 5% CO2; live cells counted microscopically, probit diagram method
Give bare numbers, in µg/mL.

Respectfully, I request IC50 for each entry included below.
1. CCCCCCCCCCCCCC(=O)O[C@H]1[C@H](O)[C@@H](O)[C@@H](O[C@H]2O[C@H](CO)[C@@H](OC(=O)CCCCCCCCCCCCC)[C@H](O)[C@H]2O)O[C@@H]1CO
2. CCCCCCCCCCCC(=O)O[C@H]1[C@H](O)[C@@H](O)[C@@H](O[C@H]2O[C@H](CO)[C@@H](OC(=O)CCCCCCCCCCC)[C@H](O)[C@H]2O)O[C@@H]1CO
3. CCCCCCCC(=O)O[C@H]1[C@H](O)[C@@H](O)[C@@H](O[C@H]2O[C@H](CO)[C@@H](OC(=O)CCCCCCC)[C@H](O)[C@H]2O)O[C@@H]1CO
4. CCCCCCCCCC(=O)O[C@H]1[C@H](O)[C@@H](O)[C@@H](O[C@H]2O[C@H](CO)[C@@H](OC(=O)CCCCCCCCC)[C@H](O)[C@H]2O)O[C@@H]1CO

Completion:
[12.6, 8.4, 35.1, 11.2]

----------
Please respond with reported response vs control in vivo at 4 mg/kg for every item in the list.
- System: Ehrlich carcinoma
- method: Activities against Ehrlich carcinoma (antitumor effect, survival time in mice)
- Format: in vivo, ICR female mice
- experimental.parameters: Mus musculus, ip, 720 h, 4.0 mg/kg, intraperitoneal, once a day for 10 days, average survival time counted 30 days after implantation, read-out: Antitumor effect (T/C %)
Answers are plain numbers, in %.

Respectfully, I request response vs control in vivo at 4 mg/kg for each entry included below.
1. CCCCCCCCCCCCCCCCCC(=O)O[C@H]1[C@H](O)[C@@H](O)[C@@H](O[C@H]2O[C@H](CO)[C@@H](OC(=O)CCCCCCCCCCCCCCCCC)[C@H](O)[C@H]2O)O[C@@H]1CO
2. CCCCCCCCCC(=O)O[C@H]1[C@H](O)[C@@H](O)[C@@H](O[C@H]2O[C@H](CO)[C@@H](OC(=O)CCCCCCCCC)[C@H](O)[C@H]2O)O[C@@H]1CO
3. CCCCCCCCCCCCCC(=O)O[C@H]1[C@H](O)[C@@H](O)[C@@H](O[C@H]2O[C@H](CO)[C@@H](OC(=O)CCCCCCCCCCCCC)[C@H](O)[C@H]2O)O[C@@H]1CO

Completion:
1. 183
2. 152
3. 203

Respectfully, I request response vs control in vivo at 4 mg/kg for each entry included below.
1. CCCCCCCCCCCCCCCCCCCCCC(=O)O[C@H]1[C@H](O)[C@@H](O)[C@@H](O[C@H]2O[C@H](CO)[C@@H](OC(=O)CCCCCCCCCCCCCCCCCCCCC)[C@H](O)[C@H]2O)O[C@@H]1CO
2. CCCCCC(=O)O[C@H]1[C@H](O)[C@@H](O)[C@@H](O[C@H]2O[C@H](CO)[C@@H](OC(=O)CCCCC)[C@H](O)[C@H]2O)O[C@@H]1CO

Completion:
179
120

----------
- System: Ehrlich carcinoma
- method: Activities against Ehrlich carcinoma (antitumor effect, survival time in mice)
- Type: in vivo, ICR female mice
- experimental.parameters: Mus musculus, ip, 720 h, 40.0 mg/kg, intraperitoneal, once a day for 10 days, average survival time counted 30 days after implantation, read-out: Antitumor effect (T/C %)
property.name: response vs control in vivo at 40 mg/kg (%)
Answers are plain numbers, in %.

>  <query.smiles>
CCCCCC(=O)O[C@H]1[C@H](O)[C@@H](O)[C@@H](O[C@H]2O[C@H](CO)[C@@H](OC(=O)CCCCC)[C@H](O)[C@H]2O)O[C@@H]1CO

>  <response vs control in vivo at 40 mg/kg [%]>
103

$$$$
>  <query.smiles>
CC(=O)O[C@H]1[C@H](O)[C@@H](O)[C@@H](O[C@H]2O[C@H](CO)[C@@H](OC(C)=O)[C@H](O)[C@H]2O)O[C@@H]1CO

>  <response vs control in vivo at 40 mg/kg [%]>
114

$$$$

Prompt: Return reported response vs control in vivo at 40 mg/kg; argument: CCCCCCCCCCCCCCCC(=O)O[C@H]1[C@H](O)[C@@H](O)[C@@H](O[C@H]2O[C@H](CO)[C@@H](OC(=O)CCCCCCCCCCCCCCC)[C@H](O)[C@H]2O)O[C@@H]1CO
Completion: 189
